Just for reference, paper PMC12210912 is where these values come from.

Attribute: Tmax
Assay: in vivo pharmacokinetics in CD1 male mice
Conditions: mouse, 5 mg/kg PO, plasma
Please state the number and follow it with the unit.

Please fill in: Tmax reported for CC(C)(C)c1ccc(C(C)(C)C)c(NC(=O)C2CCC3C4CNC5=CC(=O)CC[C@]5(C)C4CC[C@]23C)c1 (some centres unmarked) = 30 min

Please fill in: Tmax reported for C[C@]12CCC3C(CNC4=CC(=O)CC[C@@]43C)C1CCC2C(=O)NC(c1ccc(F)cc1)c1ccc(F)cc1 (some centres unmarked) = 30 min

---

Experiment: in vivo
Settings: female, Balb/c, mouse, po, 100 mg/kg
measured-property: concentration at 6 h (µM)
Quick note: give the figure in µM, leave out the unit.

Please fill in: concentration at 6 h reported for C[C@]12CCC3C(CNC4=CC(=O)CC[C@@]43C)C1CCC2C(=O)NC(c1ccc(F)cc1)c1ccc(F)cc1 (stereo partly shown) = 292

---

Molecular target: hERG channel (Homo sapiens, UniProt Q12809)
Sequence (Q12809 whole entry): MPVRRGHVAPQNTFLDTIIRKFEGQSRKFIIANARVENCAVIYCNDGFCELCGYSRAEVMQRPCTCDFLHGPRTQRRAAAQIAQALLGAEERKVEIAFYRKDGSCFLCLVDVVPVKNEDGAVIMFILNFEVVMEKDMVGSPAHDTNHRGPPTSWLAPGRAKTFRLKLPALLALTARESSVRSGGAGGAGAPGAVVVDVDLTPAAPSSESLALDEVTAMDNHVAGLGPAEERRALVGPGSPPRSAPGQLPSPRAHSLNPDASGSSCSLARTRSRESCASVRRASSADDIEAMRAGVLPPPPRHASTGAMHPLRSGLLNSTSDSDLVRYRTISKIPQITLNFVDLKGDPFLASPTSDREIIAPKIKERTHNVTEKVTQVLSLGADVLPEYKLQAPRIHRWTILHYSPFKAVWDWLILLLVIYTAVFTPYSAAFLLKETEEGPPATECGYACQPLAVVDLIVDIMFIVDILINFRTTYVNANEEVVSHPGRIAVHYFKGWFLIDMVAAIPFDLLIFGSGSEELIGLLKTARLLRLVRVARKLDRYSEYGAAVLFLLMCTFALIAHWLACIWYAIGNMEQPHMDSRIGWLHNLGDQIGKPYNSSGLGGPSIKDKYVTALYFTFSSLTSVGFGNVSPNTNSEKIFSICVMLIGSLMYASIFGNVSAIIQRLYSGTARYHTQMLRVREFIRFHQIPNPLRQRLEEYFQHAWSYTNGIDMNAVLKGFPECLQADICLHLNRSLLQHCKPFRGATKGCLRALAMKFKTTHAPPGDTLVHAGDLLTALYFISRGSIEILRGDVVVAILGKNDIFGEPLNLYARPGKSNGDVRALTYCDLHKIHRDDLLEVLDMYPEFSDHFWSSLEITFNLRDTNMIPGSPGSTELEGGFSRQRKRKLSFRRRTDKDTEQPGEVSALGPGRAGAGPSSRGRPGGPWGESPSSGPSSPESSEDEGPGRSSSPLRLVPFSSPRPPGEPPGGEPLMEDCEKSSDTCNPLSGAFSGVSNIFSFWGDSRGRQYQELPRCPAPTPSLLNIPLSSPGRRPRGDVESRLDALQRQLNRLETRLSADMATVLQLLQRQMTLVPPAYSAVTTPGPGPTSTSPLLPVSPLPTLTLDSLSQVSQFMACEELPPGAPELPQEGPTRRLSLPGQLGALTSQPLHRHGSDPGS
Assay: hERG potassium channel current inhibition, whole-cell patch clamp
Conditions: hERG-expressing HEK 293 cells, whole-cell recording, 25 °C
measured-property: pIC50
Note: pIC50 values are expressed as the negative base-10 logarithm of concentration in M.

Recorded results for 2 compounds are shown here.
| compound | pIC50 |
| --- | --- |
| CC(C)(C)c1ccc(C(C)(C)C)c(NC(=O)C2CCC3C4CNC5=CC(=O)CC[C@]5(C)C4CC[C@]23C)c1 (stereo partly drawn) | 6.02 |
| CCCN1CC2C3CCC(C(=O)Nc4cc(C(C)(C)C)ccc4C(C)(C)C)[C@@]3(C)CCC2[C@@]2(C)CCC(=O)C=C12 (stereo partly drawn) | 6.13 |

--- query ---
Please fill in: pIC50 reported for C[C@]12CCC3C(CNC4=CC(=O)CC[C@@]43C)C1CCC2C(=O)NC(c1ccc(F)cc1)c1ccc(F)cc1 (stereo partly drawn) = 5.52

---

Test: in vivo pharmacokinetics in CD1 male mice
Conditions: mouse, 5 mg/kg PO, plasma
Attribute: half-life
Quick note: give the figure in h, leave out the unit.

| molecule | half-life (h) |
| --- | --- |
| C[C@]12CCC3C(CNC4=CC(=O)CC[C@@]43C)C1CCC2C(=O)NC(c1ccc(F)cc1)c1ccc(F)cc1 (some centres unmarked) | 2.8 |

--- query ---
Please fill in: half-life reported for CC(C)(C)c1ccc(C(C)(C)C)c(NC(=O)C2CCC3C4CNC5=CC(=O)CC[C@]5(C)C4CC[C@]23C)c1 (some centres unmarked) = 1

---

Test: in vivo pharmacokinetics in CD1 male mice
Settings: male, CD1, mouse, plasma, oral, 5 mg/kg, 5 mg/kg PO vs 1 mg/kg IV, read-out: F (bioavailability)
measured-property: bioavailability (%)
Quick note: give the figure in %, leave out the unit.

| molecule | bioavailability, % |
| --- | --- |
| C[C@]12CCC3C(CNC4=CC(=O)CC[C@@]43C)C1CCC2C(=O)NC(c1ccc(F)cc1)c1ccc(F)cc1 (some centres unmarked) [Compound 5] | 119 |

Please fill in: bioavailability reported for CC(C)(C)c1ccc(C(C)(C)C)c(NC(=O)C2CCC3C4CNC5=CC(=O)CC[C@]5(C)C4CC[C@]23C)c1 (some centres unmarked) [Compound 1] = 46.2

---

Molecular target: CYP3A4 (Homo sapiens, UniProt P08684)
Construct: Human liver microsomes (150 donors pooled, male & female, Corning, Cat# 452117) were used as a source of CYP3A4; tissue Corning 452117; host or cells: pooled human liver microsomes (150 donors)
Sequence (P08684 whole entry): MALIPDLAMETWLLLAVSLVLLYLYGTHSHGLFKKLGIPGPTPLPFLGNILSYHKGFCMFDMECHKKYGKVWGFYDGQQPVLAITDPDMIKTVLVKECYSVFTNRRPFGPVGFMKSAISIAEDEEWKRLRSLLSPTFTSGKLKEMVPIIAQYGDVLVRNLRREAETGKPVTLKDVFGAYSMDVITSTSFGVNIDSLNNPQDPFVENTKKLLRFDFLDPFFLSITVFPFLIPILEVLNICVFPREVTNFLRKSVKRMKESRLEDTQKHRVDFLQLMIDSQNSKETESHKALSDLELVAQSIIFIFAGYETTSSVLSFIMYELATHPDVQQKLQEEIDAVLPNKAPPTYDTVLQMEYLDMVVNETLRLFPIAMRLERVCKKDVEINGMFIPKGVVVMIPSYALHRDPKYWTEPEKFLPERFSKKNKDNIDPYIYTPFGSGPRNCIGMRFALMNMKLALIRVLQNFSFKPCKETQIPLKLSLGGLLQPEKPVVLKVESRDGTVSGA
Experiment: inhibition of CYP3A4 enzymatic activity in human liver microsomes
Format: in vitro ADME
Settings: both sexes, probe midazolam (5 µM), midazolam substrate, read-out: % inhibition observed, Cyp3A4 Midazolam Isoform
measured-property: inhibition at 5 min, 20 µM (%)
Quick note: give the figure in %, leave out the unit.

Entry C[C@]12CCC3C(CNC4=CC(=O)CC[C@@]43C)C1CCC2C(=O)NC(c1ccc(F)cc1)c1ccc(F)cc1 (stereo partly shown) [Compound 5] , CYP3A4 (Homo sapiens, UniProt P08684) data, inhibition at 5 min, 20 µM value: 79
